Test system: 876862-298-R-J1-PDC complex spheroids, viability % test/control
Assay Text: Anticancer human tumor 876862-298-R-J1-PDC patient-derived endometrial carcinoma cell line growth inhibition [CLK]
Experimental Setup: second compound 0.316 µM; first compound 3.16 µM; active compounds read low
Experimental Readout: viability, T/C

Take a look at these entries with their results.
[[record]]
compound = "Nc1ccccc1NC(=O)c1ccc(CNC(=O)OCc2cccnc2)cc1 + CN1CCN(c2cc(C(=O)Nc3cc4cc(-c5cnn(C)c5)ccc4cn3)ccn2)CC1"
observed_measurement = "0.85%"

[[record]]
compound = "C#Cc1c(F)ccc2cc(O)cc(-c3ncc4c(N5CC6CCC(C5)N6)nc(OCC56CCCN5CC(F)C6)nc4c3F)c12 (stereo not given) + CN1CCN(c2cc(C(=O)Nc3cc4cc(-c5cnn(C)c5)ccc4cn3)ccn2)CC1"
observed_measurement = "5.76%"

[[record]]
compound = "O=c1[nH]cc(F)c(=O)[nH]1 + CNC(=O)c1ccc(Nc2nc(OC3CCCC3)c3c(-c4ccc5nc(C)oc5c4)c[nH]c3n2)c(OC)c1"
observed_measurement = "40.1%"


// returns reported viability, T/C for input CCCS(=O)(=O)Nc1ccc(F)c(C(=O)c2c[nH]c3ncc(-c4ccc(Cl)cc4)cc23)c1F + CNC(=O)c1ccc(Nc2nc(OC3CCCC3)c3c(-c4ccc5nc(C)oc5c4)c[nH]c3n2)c(OC)c1 31.7%

// returns reported viability, T/C for input COC1C=CCC(C)C(C)S(=O)(=O)NC(=O)c2ccc3c(c2)N(CC2CCC21)CC1(CCCc2cc(Cl)ccc21)CO3 (stereo not given) + CNC(=O)c1ccc(Nc2nc(OC3CCCC3)c3c(-c4ccc5nc(C)oc5c4)c[nH]c3n2)c(OC)c1 20.5%

====

System: 876862-298-R-J1-PDC complex spheroids, viability % test/control
Assay Text: Anticancer human tumor 876862-298-R-J1-PDC cell line growth inhibition [CLK];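 note: spheroids exposed to drugs for 7 days before readout; 100% = DMSO vehicle control wells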
Experimental Setup: second compound 0.0316 µM; first compound 1 µM; active compounds read low
Simple rule here: viability, T/C less than 70% is true, otherwise false.

// below: answered compounds
[[record]]
compound = "O=c1[nH]cc(F)c(=O)[nH]1 + CN1CCN(c2cc(C(=O)Nc3cc4cc(-c5cnn(C)c5)ccc4cn3)ccn2)CC1"
qualitative_label = "false"

[[record]]
compound = "O=C(c1cc(Cc2n[nH]c(=O)c3ccccc23)ccc1F)N1CCN(C(=O)C2CC2)CC1 + CNC(=O)c1ccc(Nc2nc(OC3CCCC3)c3c(-c4ccc5nc(C)oc5c4)c[nH]c3n2)c(OC)c1"
qualitative_label = "false"

[[record]]
compound = "COc1cccc2c1C(=O)c1c(O)c3c(c(O)c1C2=O)CC(O)(C(=O)CO)CC3OC1CC(N)C(O)C(C)O1 (stereo not drawn) + CNC(=O)c1ccc(Nc2nc(OC3CCCC3)c3c(-c4ccc5nc(C)oc5c4)c[nH]c3n2)c(OC)c1"
qualitative_label = "true"

[[record]]
compound = "CC(CO)NC(=O)c1cc(-c2ccc(Cl)cc2)nn(-c2cnn(C)c2)c1=O (stereo not drawn) + CNC(=O)c1ccc(Nc2nc(OC3CCCC3)c3c(-c4ccc5nc(C)oc5c4)c[nH]c3n2)c(OC)c1"
qualitative_label = "true"

[[record]]
compound = "CCN1CCN(Cc2ccc(Nc3ncc(F)c(-c4cc(F)c5nc(C)n(C(C)C)c5c4)n3)nc2)CC1 + CN1CCN(c2cc(C(=O)Nc3cc4cc(-c5cnn(C)c5)ccc4cn3)ccn2)CC1"
qualitative_label = "true"


Determine whether this compound shows viability, T/C lower than 70% (ties excluded): CC(Nc1ccc2c(c1)OCCn1cc(N3C(=O)OCC3C(F)F)nc1-2)C(N)=O (stereo not drawn) + CNC(=O)c1ccc(Nc2nc(OC3CCCC3)c3c(-c4ccc5nc(C)oc5c4)c[nH]c3n2)c(OC)c1 true

Determine whether this compound shows viability, T/C lower than 70% (ties excluded): Nc1ccccc1NC(=O)c1ccc(CNC(=O)OCc2cccnc2)cc1 + CNC(=O)c1ccc(Nc2nc(OC3CCCC3)c3c(-c4ccc5nc(C)oc5c4)c[nH]c3n2)c(OC)c1 false
